- target: rat brain bradykinin receptors
- assay.info: Radioligand competition binding against [3H]DALKD in rat brain membranes
- run.conditions: Table 2; [3H]DALKD, rat brain bradykinin receptors, pH 7.4; read-out: IC50 (nM) at pH 7.4, n > 2
IC50 reference
Dear colleague, please return just the value in nM, with no unit written.

>>> print(df.to_string())
                                  substance  reported
0  GFLRRI [LYS1004, Gly-Phe-Leu-Arg-Arg-Ile]      2300

Enquiry: What is its IC50 for rat brain bradykinin receptors? Entry: GFLR [LYS1035, Gly-Phe-Leu-Arg]
Return: 950

Enquiry: Give rat brain bradykinin receptors IC50 for GFLRRIRP [BP1004D, Gly-Phe-Leu-Arg-Arg-Ile-Arg-Pro]
Return: 1200

Enquiry: Look up IC50 with rat brain bradykinin receptors for this substance: GFLRR [BP006D, Gly-Phe-Leu-Arg-Arg]
Return: 8100

Enquiry: Tell me reported IC50 for GFLRRIR [Analogs J104, Gly-Phe-Leu-Arg-Arg-Ile-Arg] , tested with rat brain bradykinin receptors.
Return: 780

Enquiry: Requested read-out IC50, target or system rat brain bradykinin receptors, entry GFLRRIRPK [LYS1027, Gly-Phe-Leu-Arg-Arg-Ile-Arg-Pro-Lys]
Return: 130

Enquiry: Could you share what IC50 was measured for GFLRRIRPKLK [LYS1021] , tested on rat brain bradykinin receptors?
Return: 320

Enquiry: Lookup: IC50 / rat brain bradykinin receptors / GFLRRIRPKL [LYS1024, Gly-Phe-Leu-Arg-Arg-Ile-Arg-Pro-Lys-Leu]
Return: 280

###

A collection of substances and their measured IC50
- target: rat brain bradykinin receptors
- assay.info: Radioligand competition binding against [3H]DALKD in rat brain membranes
- run.conditions: Table 6; [3H]DALKD, rat brain bradykinin receptors, pH 7.4; read-out: IC50 (nM) at pH 7.4, N > 2
Respond with the bare value in nM.

Before answering, review these 3 worked examples.
>>> print(df.to_string())
         substance  measured_attribute  reported
0  FIRIRPR [AN105]                IC50       110
1  WLRIRPK [AN103]                IC50       190
2  FLRIRPR [AN104]                IC50       210

Would you kindly look at the next entry?
Enquiry: Recorded IC50 for FLRLRPR [AN106] with rat brain bradykinin receptors, please?
Return: 100

###

- target: rat brain bradykinin receptors
- assay.info: Radioligand competition binding against [3H]DALKD in rat brain membranes
- run.conditions: Table 1; [3H]DALKD, brain bradykinin receptors, pH 6.8; read-out: IC50 (nM) at pH 6.8, n ≥ 2
# note: exactly 70 nM is not below, so it is NO; use YES for IC50 strictly under it

In [3]: df
Out[3]:
                                  substance  classification
0  GFLRIRPKLK [LYS1042, Gly-Phe-Leu-Arg-Ile-Arg-Pro-Lys-Leu-Lys]             YES
1  IRPKLK [LYS1039, Ile-Arg-Pro-Lys-Leu-Lys]             YES
2           PKLK [LYS1038, Pro-Lys-Leu-Lys]              NO
3                      GGFLRIRPKLK [CYF103]             YES
4      RPKLK [LYS1113, Arg-Pro-Lys-Leu-Lys]             YES

Consider the additional substance presented here.
Enquiry: IC50 strictly < 70 nM for this substance? LRIRPKLK [LYS1040, Leu-Arg-Ile-Arg-Pro-Lys-Leu-Lys]
Return: YES

Origin of the recorded values: patent US10428115B2
